Target: UniProtKB P04584
Test: In vitro enzymatic (HPLC) inhibition assay, wild-type protease
Format: biochemical
Details: HPLC, oligopeptide substrate, pH 5.6, 37 °C 1 h, triplicate, mean ± SD; read-out: IC50 Wild-Type
Assay Endpoint: pIC50
Units for pIC50: none; it is -log10 of a concentration expressed in mol/L.

Notebook: "COC(=O)N[C@H](C(=O)N[C@@H](Cc1ccccc1)[C@@H](O)CN(Cc1ccc(-c2ccccn2)cc1)NC(=O)[C@@H](NC(=O)OC)C(C)(C)C)C(C)(C)C" , pIC50 read as 8.48

Notebook: "CC(C)(C)NC(=O)[C@@H]1CN(Cc2cccnc2)CCN1C[C@@H](O)C[C@@H](Cc1ccccc1)C(=O)N[C@H]1c2ccccc2C[C@H]1O" , pIC50 read as 8.89

Notebook: "Cc1c(O)cccc1C(=O)N[C@@H](CSc1ccccc1)[C@H](O)CN1C[C@H]2CCCC[C@H]2C[C@H]1C(=O)NC(C)(C)C" , pIC50 read as 7.42

----------
Tested on: double mutant (I54M, L90M) HIV-2 protease
Assay: In vitro enzymatic (HPLC) inhibition assay, double mutant protease
Format: biochemical
Conditions: Ki double mutant versus wild-type
The label depends only on Fold Increase (Ki): class 1 if it is at least 20 fold, class 0 if it is smaller.

### Prompt Reported Fold Increase (Ki) reaches at least 20 fold for "Cc1cccc(C)c1OCC(=O)N[C@@H](Cc1ccccc1)[C@@H](O)C[C@H](Cc1ccccc1)NC(=O)[C@H](C(C)C)N1CCCNC1=O" ?
### Response class 0

### Prompt Reported Fold Increase (Ki) reaches at least 20 fold for "Cc1c(O)cccc1C(=O)N[C@@H](CSc1ccccc1)[C@H](O)CN1C[C@H]2CCCC[C@H]2C[C@H]1C(=O)NC(C)(C)C" ?
### Response class 1

### Prompt Reported Fold Increase (Ki) reaches at least 20 fold for CC(C)(C)NC(=O)[C@@H]1CN(Cc2cccnc2)CCN1C[C@@H](O)C[C@@H](Cc1ccccc1)C(=O)N[C@H]1c2ccccc2C[C@H]1O [Indinavir] ?
### Response class 0

### Prompt Reported Fold Increase (Ki) reaches at least 20 fold for "CCC[C@@]1(CCc2ccccc2)CC(O)=C([C@H](CC)c2cccc(NS(=O)(=O)c3ccc(C(F)(F)F)cn3)c2)C(=O)O1" ?
### Response class 0

### Prompt Reported Fold Increase (Ki) reaches at least 20 fold for "CC(C)CN(C[C@@H](O)[C@H](Cc1ccccc1)NC(=O)O[C@H]1CO[C@H]2OCC[C@H]21)S(=O)(=O)c1ccc(N)cc1" ?
### Response class 1

### Prompt Reported Fold Increase (Ki) reaches at least 20 fold for "CC(C)(C)NC(=O)[C@@H]1C[C@@H]2CCCC[C@@H]2CN1C[C@@H](O)[C@H](Cc1ccccc1)NC(=O)[C@H](CC(N)=O)NC(=O)c1ccc2ccccc2n1" ?
### Response class 1

### Prompt Reported Fold Increase (Ki) reaches at least 20 fold for "COC(=O)N[C@H](C(=O)N[C@@H](Cc1ccccc1)[C@@H](O)CN(Cc1ccc(-c2ccccn2)cc1)NC(=O)[C@@H](NC(=O)OC)C(C)(C)C)C(C)(C)C" ?
### Response class 0

----------
Target: wild-type HIV-2 protease (Human immunodeficiency virus type 2 subtype A, UniProt P04584)
Sequence (P04584 514-612 limits assumed): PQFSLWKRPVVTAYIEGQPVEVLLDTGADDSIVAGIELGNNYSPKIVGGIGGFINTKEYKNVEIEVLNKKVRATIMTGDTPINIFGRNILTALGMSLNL
Experiment: In vitro enzymatic (HPLC) inhibition assay, wild-type protease
Type: biochemical
Settings: calculated from IC50 by Ki = (IC50 − E/2)/(S/Km + 1); mean ± SD; read-out: Ki Wild-Type
Counter-ions that a name gives are not always drawn.
Assign Ki to each entry below.
The response must be a number in nM with no trailing unit.

Notebook: CC(C)(C)NC(=O)[C@@H]1CN(Cc2cccnc2)CCN1C[C@@H](O)C[C@@H](Cc1ccccc1)C(=O)N[C@H]1c2ccccc2C[C@H]1O [Indinavir sulfate, indinavir sulfate] , Ki read as 0.03

Notebook: Cc1cccc(C)c1OCC(=O)N[C@@H](Cc1ccccc1)[C@@H](O)C[C@H](Cc1ccccc1)NC(=O)[C@H](C(C)C)N1CCCNC1=O [Lopinavir] , Ki read as 0.03

Notebook: COC(=O)N[C@H](C(=O)N[C@@H](Cc1ccccc1)[C@@H](O)CN(Cc1ccc(-c2ccccn2)cc1)NC(=O)[C@@H](NC(=O)OC)C(C)(C)C)C(C)(C)C [Atazanavir] , Ki read as 0.09

Notebook: CC(C)(C)NC(=O)[C@@H]1C[C@@H]2CCCC[C@@H]2CN1C[C@@H](O)[C@H](Cc1ccccc1)NC(=O)[C@H](CC(N)=O)NC(=O)c1ccc2ccccc2n1 [Saquinavir] , Ki read as 0.09

----------
Molecular target: wild-type HIV-2 protease (Human immunodeficiency virus type 2 subtype A, UniProt P04584)
Experiment: In vitro enzymatic (HPLC) inhibition assay, wild-type protease
Format: biochemical
Conditions: HPLC, oligopeptide substrate, pH 5.6, 37 °C 1 h, triplicate, mean ± SD; read-out: IC50 Wild-Type
Assign IC50 to each entry below.
The response must be a number in nM with no trailing unit.

Notebook: Cc1cccc(C)c1OCC(=O)N[C@@H](Cc1ccccc1)[C@@H](O)C[C@H](Cc1ccccc1)NC(=O)[C@H](C(C)C)N1CCCNC1=O [Lopinavir] , IC50 read as 1.18

Notebook: CCC[C@@]1(CCc2ccccc2)CC(O)=C([C@H](CC)c2cccc(NS(=O)(=O)c3ccc(C(F)(F)F)cn3)c2)C(=O)O1 [Tipranavir] , IC50 read as 50

Notebook: CC(C)(C)NC(=O)[C@@H]1C[C@@H]2CCCC[C@@H]2CN1C[C@@H](O)[C@H](Cc1ccccc1)NC(=O)[C@H](CC(N)=O)NC(=O)c1ccc2ccccc2n1 [Saquinavir] , IC50 read as 3.42

----------
Target: UniProt:P04584
Assay: In vitro enzymatic (HPLC) inhibition assay, wild-type protease
Assay type: biochemical
Details: Ki Wild-Type, calculated from IC50 by Ki = (IC50 − E/2)/(S/Km + 1); mean ± SD
Assay Endpoint: Ki
// return the numeric value with its unit appended

Notebook: "CC(C)CN(C[C@@H](O)[C@H](Cc1ccccc1)NC(=O)O[C@H]1CO[C@H]2OCC[C@H]21)S(=O)(=O)c1ccc(N)cc1" , Ki read as 0.05 nM

----------
Target: double mutant (I54M, L90M) HIV-2 protease (Human immunodeficiency virus type 2 subtype A, UniProt P04584, I567M/L603M)
Sequence (P04584 514-612 I567M/L603M): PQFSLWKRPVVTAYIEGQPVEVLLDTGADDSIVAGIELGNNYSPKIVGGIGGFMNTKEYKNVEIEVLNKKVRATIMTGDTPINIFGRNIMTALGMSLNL
Experiment: In vitro enzymatic (HPLC) inhibition assay, double mutant protease
Assay Endpoint: pIC50
Units for pIC50: none; it is -log10 of a concentration expressed in mol/L.

Notebook: "Cc1c(O)cccc1C(=O)N[C@@H](CSc1ccccc1)[C@H](O)CN1C[C@H]2CCCC[C@H]2C[C@H]1C(=O)NC(C)(C)C" , pIC50 read as 6.72

Notebook: "CCC[C@@]1(CCc2ccccc2)CC(O)=C([C@H](CC)c2cccc(NS(=O)(=O)c3ccc(C(F)(F)F)cn3)c2)C(=O)O1" , pIC50 read as 8.32

Notebook: "CC(C)CN(C[C@@H](O)[C@H](Cc1ccccc1)NC(=O)O[C@H]1CCOC1)S(=O)(=O)c1ccc(N)cc1" , pIC50 read as 6.82

Notebook: "CC(C)(C)NC(=O)[C@@H]1C[C@@H]2CCCC[C@@H]2CN1C[C@@H](O)[C@H](Cc1ccccc1)NC(=O)[C@H](CC(N)=O)NC(=O)c1ccc2ccccc2n1" , pIC50 read as 7.85

Notebook: "CC(C)CN(C[C@@H](O)[C@H](Cc1ccccc1)NC(=O)O[C@H]1CO[C@H]2OCC[C@H]21)S(=O)(=O)c1ccc(N)cc1" , pIC50 read as 8.09

Notebook: "Cc1cccc(C)c1OCC(=O)N[C@@H](Cc1ccccc1)[C@@H](O)C[C@H](Cc1ccccc1)NC(=O)[C@H](C(C)C)N1CCCNC1=O" , pIC50 read as 8.63

Notebook: "COC(=O)N[C@H](C(=O)N[C@@H](Cc1ccccc1)[C@@H](O)CN(Cc1ccc(-c2ccccn2)cc1)NC(=O)[C@@H](NC(=O)OC)C(C)(C)C)C(C)(C)C" , pIC50 read as 7.96

Notebook: "CC(C)(C)NC(=O)[C@@H]1CN(Cc2cccnc2)CCN1C[C@@H](O)C[C@@H](Cc1ccccc1)C(=O)N[C@H]1c2ccccc2C[C@H]1O" , pIC50 read as 8.59

Value source: paper PMC4690855
